# Tgt: UniProtKB Q99685
# Sequence (Q99685 whole entry, species assumed): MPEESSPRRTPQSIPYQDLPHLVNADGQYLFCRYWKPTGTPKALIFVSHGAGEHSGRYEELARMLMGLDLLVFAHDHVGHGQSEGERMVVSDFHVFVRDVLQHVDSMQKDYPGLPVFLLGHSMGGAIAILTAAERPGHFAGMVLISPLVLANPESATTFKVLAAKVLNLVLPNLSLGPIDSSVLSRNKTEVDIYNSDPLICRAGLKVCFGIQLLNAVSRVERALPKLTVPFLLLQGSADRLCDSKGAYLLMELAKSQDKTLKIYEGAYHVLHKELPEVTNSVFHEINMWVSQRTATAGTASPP
# Assay Method Text: 2-AG assay: MAGL inhibitory activity by hydrolysis of 2-arachidonoylglycerol to arachidonic acid, followed by mass spectrometry
# Assay type: biochemical
# Condition Context: 15 min preincubation, 30 min reaction at RT, 8 μM 2-arachidonoylglycerol
Please assign 0 (no) whenever IC50 is at or above 20 nM, and 1 (yes) whenever it is below.

For orientation, consider the following solved cases.
| Compound | Assigned Label |
| --- | --- |
| O=C1CCC2(CN(C(=O)N3CC4(CCC(Cc5cnc(C(F)(F)F)cn5)CC4)C3)C2)N1 | 1 (yes) |
| CS(=O)(=O)c1cc(C(F)(F)F)ccc1CC1CC2(C1)CN(C(=O)N1CC3(CCC(=O)N3)C1)C2 | 1 (yes) |
| O=C1CCC2(CN(C(=O)N3CC4(CC(Cc5ccc(C(F)(F)F)nc5)C4)C3)C2)N1 | 1 (yes) |

In plain terms, does O=C1NC2(CO1)CN(C(=O)N1CC3(CC[C@H](Oc4cnc(C(F)(F)F)cn4)C3)C1)C2 (single isomer, unassigned) come in under 20 nM for IC50?
1 (yes)

In plain terms, does O=C1COCC2(CN(C(=O)N3CC4(CC[C@@H](Cc5ccc(S(=O)(=O)C(F)(F)F)cc5)C4)C3)C2)N1 come in under 20 nM for IC50?
1 (yes)

In plain terms, does O=C1CCCC2(CN(C(=O)N3CC4(CC(Cc5ccc(S(=O)(=O)C(F)(F)F)cn5)C4)C3)C2)N1 come in under 20 nM for IC50?
0 (no)

In plain terms, does CS(=O)(=O)c1cccc(CC2CC3(C2)CN(C(=O)N2CC4(COC(=O)N4)C2)C3)c1 come in under 20 nM for IC50?
1 (yes)
